- system: T1, Cynomolgus GPRC5D (Cynomolgus, UniProt Q9NZD1 1-343 (human entry))
- T1 construct: Full length, on stably transfected cells (HEK293-cyGPRC5D, CHO-cyGPRC5D); also called cyGPRC5D
- T1 chain: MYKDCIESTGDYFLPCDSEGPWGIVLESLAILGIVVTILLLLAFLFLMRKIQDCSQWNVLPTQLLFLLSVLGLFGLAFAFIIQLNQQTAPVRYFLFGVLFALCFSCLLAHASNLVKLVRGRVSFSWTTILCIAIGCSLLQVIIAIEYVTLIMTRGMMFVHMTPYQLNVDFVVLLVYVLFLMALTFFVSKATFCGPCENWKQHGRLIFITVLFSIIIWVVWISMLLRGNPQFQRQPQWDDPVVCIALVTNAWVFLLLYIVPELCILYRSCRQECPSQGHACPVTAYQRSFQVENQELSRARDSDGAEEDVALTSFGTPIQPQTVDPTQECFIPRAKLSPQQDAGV
- test: flow cytometry, CHO-cyGPRC5D cells
measurement label: binding result

| binder | measurement label | result |
| --- | --- | --- |
| anti-GPRC5D chimeric antibody 18E7 (antibody, V domains shown) VH: EVQLQQSGPELVKPGASVKMSCKASEYTFTNYVMYWVKQKPGQGLEWIGYINPYNDGTKYNEKFKGKATLTSDKSSSTAYMELSSLTSEDSAVYYCVRGGMLTTRSLFAYWGQGTLVTVSA VL: DIQMTQSPSSLSASLGERVSLTCRASQRISGYLSWLQQKPDGTIKRLIYAASTLDSGVPKRFSGSRSGSDYSLTISSLESEDFADYYCLQYASYPPTFGGGTKLEIK | binding result | binds |
| anti-GPRC5D chimeric antibody 15H5 (antibody, V domains shown) VH: EVQLQQSGPELVKPGASVKMSCMASGYTFTSYVMYWVKQKPGQGLEWIGYINPYNDGTKYNEKFKGKATLTSDKSSSTAYMELSSLTSEDSAVYYCARGGMLTTRSLFVYWGHGTLVTVSA VL: DIQMTQSPSSLSASLGERVSLTCRASQEISGYLSWLQQKPDGTIKRLIYAASTLDSGVPKRFSGSRSGSDYSLTISSLESEDFADYYCLQYASYPPTYGGGTKLEIK | binding result | binds |
| anti-GPRC5D chimeric antibody 19E2 (antibody, V domains shown) VH: EVQLQQSGPELVKPGASVKMSCKASEYTFTNYVMYWVKQKPGQGLEWIGYINPYNDGTKYNEKFKGKATLTSDKSSSTAYMELSSLTSEDSAVYYCVRGGMLTTRSLFAYWGQGTLVTVSA VL: DIQMTQSPSSLSASLGERVSLTCRASQRISGYLSWLQQKPDGTIKRLIYAASTLDSGVPKRFSGSRSGSDYSLTISSLESEDFADYYCLQYANYPPTFGGGTKLEIK | binding result | binds |
